Measured Target: T1, Ax1 protein, extracellular domain (human, UniProt P30530 26-451)
T1 construct: extracellular domain; also called Axl; Ark
T1 sequence (looked up): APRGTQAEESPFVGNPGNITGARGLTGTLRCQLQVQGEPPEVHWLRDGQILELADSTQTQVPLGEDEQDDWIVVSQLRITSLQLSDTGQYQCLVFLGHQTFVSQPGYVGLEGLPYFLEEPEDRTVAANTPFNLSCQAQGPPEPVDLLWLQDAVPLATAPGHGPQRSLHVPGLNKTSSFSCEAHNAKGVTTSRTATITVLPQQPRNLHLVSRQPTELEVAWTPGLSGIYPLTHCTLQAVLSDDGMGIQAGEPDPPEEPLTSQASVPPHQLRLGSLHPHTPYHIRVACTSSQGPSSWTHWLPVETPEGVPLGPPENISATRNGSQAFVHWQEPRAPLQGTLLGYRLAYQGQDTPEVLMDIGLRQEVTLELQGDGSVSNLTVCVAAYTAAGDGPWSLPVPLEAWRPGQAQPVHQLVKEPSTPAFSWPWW
Protocol Description: ELISA, mutant diluted 1:3
We begin with a simple list: items and their reported Affinity ELISA CPE mutant ratio (1:3, pH 6.0/7.4).
Output: the number by itself.

Would you please look over these solved cases?
>  <Binder>
HC-B102G (antibody, V domains shown, CPE single point mutant; printed B102, read as E102 (other rows print HC-E102x)) VH: EVQLVQSGAEVKKPGATVKISCKVSGYSFTGHTMNWIRQPPGKGLEWIGLIKPSNGGTSYNQKFKGRVTISADKSISTAYLQWSSLKASDTAMYYCAHGHYGSYFAMDYWGQGTLVTVSS VL: DIQMTQSPSSLSASVGDRVTITCKASQDVSSAVAWYQQKPGQAPRLLIYWASTRHTGVPSRFSGSGSGTEFTLTISSLQPDDFATYYCQEHFSTPLTFGQGTKVEIK

>  <Meas Value>
1.8

$$$$
>  <Binder>
LC-H091T (antibody, V domains shown, CPE single point mutant) VH: EVQLVQSGAEVKKPGATVKISCKVSGYSFTGHTMNWIRQPPGKGLEWIGLIKPSNGGTSYNQKFKGRVTISADKSISTAYLQWSSLKASDTAMYYCAHGHYESYFAMDYWGQGTLVTVSS VL: DIQMTQSPSSLSASVGDRVTITCKASQDVSSAVAWYQQKPGQAPRLLIYWASTRHTGVPSRFSGSGSGTEFTLTISSLQPDDFATYYCQETFSTPLTFGQGTKVEIK

>  <Meas Value>
3.78

$$$$

## Input # get_value(readout='Affinity ELISA CPE mutant ratio (1:3, pH 6.0/7.4)', item= LC-P095T (antibody, V domains shown, CPE single point mutant) VH: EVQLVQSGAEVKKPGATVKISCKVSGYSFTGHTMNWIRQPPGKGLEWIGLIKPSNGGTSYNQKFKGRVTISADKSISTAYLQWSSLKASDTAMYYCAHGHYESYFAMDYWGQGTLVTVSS VL: DIQMTQSPSSLSASVGDRVTITCKASQDVSSAVAWYQQKPGQAPRLLIYWASTRHTGVPSRFSGSGSGTEFTLTISSLQPDDFATYYCQEHFSTTLTFGQGTKVEIK )
## Output 2.5
